# subjectOfTest: EGFR(Dell9_T790M_C797S) (aa 669-1210, in house) (Homo sapiens, UniProt P00533, T790M/C797S, form not given)
# Sequence (P00533 with tags, fused parts or gaps DEL746-750/T790M/C797S, form open): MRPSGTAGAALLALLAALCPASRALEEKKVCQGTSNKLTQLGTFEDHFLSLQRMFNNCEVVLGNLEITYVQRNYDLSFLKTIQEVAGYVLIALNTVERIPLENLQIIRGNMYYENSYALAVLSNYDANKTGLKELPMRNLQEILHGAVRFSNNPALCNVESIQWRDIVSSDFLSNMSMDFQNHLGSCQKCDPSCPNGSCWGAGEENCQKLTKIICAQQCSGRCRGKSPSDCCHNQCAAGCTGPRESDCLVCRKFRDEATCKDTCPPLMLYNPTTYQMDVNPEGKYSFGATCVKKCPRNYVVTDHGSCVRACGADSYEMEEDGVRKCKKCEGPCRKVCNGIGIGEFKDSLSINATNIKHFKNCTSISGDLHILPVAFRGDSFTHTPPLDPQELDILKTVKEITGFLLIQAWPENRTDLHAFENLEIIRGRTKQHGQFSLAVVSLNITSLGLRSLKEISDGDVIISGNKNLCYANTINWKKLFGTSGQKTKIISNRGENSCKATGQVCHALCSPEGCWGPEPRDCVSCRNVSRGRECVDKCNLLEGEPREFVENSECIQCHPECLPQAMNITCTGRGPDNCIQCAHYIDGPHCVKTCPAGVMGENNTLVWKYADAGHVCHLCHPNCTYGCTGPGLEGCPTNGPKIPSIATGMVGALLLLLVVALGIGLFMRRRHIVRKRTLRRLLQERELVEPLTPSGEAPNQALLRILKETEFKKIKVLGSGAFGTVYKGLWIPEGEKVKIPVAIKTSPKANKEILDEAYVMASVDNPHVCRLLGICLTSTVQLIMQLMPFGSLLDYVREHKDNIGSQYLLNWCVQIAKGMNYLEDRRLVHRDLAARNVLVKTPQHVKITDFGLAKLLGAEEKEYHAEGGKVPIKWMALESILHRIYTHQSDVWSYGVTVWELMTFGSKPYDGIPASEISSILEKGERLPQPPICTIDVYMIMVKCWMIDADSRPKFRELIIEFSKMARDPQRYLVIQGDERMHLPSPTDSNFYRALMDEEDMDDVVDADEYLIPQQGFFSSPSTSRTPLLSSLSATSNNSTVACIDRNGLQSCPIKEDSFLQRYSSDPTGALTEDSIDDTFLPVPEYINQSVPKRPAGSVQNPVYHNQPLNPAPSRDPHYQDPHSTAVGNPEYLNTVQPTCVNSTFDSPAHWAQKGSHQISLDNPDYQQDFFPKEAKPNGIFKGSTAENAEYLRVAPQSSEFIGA
# assayExplanation: Biochemical EGFR inhibition assay (TR-FRET), Del19/T790M/C797S mutant
# setupConditions: ATP at Km, 15 min pre-incubation, 60 min reaction; read-out: Del_TM_CS (Km ATP) IC50
pIC50: −log10 of the molar value.
property: pIC50

# molecule, pIC50
records = [
    ("CN(C)C1CCN(c2ccc(Nc3ncc(Cl)c(Nc4cccc5c4N(S(C)(=O)=O)CC5)n3)c3c2OCO3)CC1 [Example 51]", 9.72),
    ("CN(C)C1CCN(c2ccc(Nc3ncc(Br)c(Nc4cccc5c4N(S(C)(=O)=O)CC5)n3)c3c2OCCO3)CC1 [Example 54]", 9.80),
]

a. CN1CCN(C2CCN(c3ccc(Nc4ncc(Br)c(Nc5cccc6c5N(S(C)(=O)=O)CC6)n4)c4c3OCCO4)CC2)CC1 [Example 193]
b. COc1cc(Nc2nc(Nc3cccc4c3N(S(C)(=O)=O)CC4)c3cc[nH]c3n2)c(F)cc1N1CCC(N2CCN(C)CC2)CC1 [Example 149]
Asked: Task for the reader: decide whether a or b has the larger pIC50. In your reply, give the label of the chosen option.
Given back: a

----------
# subjectOfTest: BaF3-LR_TM_CS cells (Homo sapiens, UniProt P00533, T790M/C797S/L858R, cells depend on it)
# Sequence (P00533 whole entry T790M/C797S/L858R): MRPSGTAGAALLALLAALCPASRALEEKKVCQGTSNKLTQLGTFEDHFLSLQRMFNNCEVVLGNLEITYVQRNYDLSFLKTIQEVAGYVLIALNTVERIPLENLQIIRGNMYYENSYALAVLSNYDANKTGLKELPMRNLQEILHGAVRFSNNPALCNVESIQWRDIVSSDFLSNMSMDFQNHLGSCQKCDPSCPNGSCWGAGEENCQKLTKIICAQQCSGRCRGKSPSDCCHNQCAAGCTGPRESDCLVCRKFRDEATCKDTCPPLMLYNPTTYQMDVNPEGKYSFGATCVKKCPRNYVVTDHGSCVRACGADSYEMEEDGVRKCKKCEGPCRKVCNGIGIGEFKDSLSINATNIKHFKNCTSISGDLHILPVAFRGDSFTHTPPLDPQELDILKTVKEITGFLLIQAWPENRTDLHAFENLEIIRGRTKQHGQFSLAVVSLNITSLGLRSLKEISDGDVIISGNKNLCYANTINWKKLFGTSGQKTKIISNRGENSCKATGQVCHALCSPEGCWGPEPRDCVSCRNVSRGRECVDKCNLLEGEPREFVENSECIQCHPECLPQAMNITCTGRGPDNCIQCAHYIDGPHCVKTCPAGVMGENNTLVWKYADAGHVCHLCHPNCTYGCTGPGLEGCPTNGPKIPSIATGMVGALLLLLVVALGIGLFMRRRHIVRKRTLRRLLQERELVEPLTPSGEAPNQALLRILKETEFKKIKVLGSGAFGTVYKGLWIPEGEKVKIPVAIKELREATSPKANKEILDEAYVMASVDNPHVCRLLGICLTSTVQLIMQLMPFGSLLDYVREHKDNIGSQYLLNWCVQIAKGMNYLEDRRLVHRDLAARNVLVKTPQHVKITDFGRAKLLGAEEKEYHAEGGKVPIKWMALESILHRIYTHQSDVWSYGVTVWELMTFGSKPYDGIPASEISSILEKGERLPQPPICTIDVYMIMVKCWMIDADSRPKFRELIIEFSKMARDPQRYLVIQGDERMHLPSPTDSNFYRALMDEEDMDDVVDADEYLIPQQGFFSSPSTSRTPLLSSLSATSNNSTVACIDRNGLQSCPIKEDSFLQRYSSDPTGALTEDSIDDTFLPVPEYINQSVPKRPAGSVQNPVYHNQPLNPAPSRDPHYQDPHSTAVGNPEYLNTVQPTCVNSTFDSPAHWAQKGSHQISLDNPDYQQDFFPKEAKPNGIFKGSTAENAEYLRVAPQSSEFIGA
# assayExplanation: Cell antiproliferation assay (CellTiter-Glo), BaF3-LR_TM_CS
# Type: cell-based
# setupConditions: 48 h treatment, read-out: BaF3-LR_TM_CS IC50
property: GI50 (nM)

# count of solved cases: 5
# sampleSmiles, GI50, nM
records = [
    ("COc1cc(N2CCC3(CCN(C)CC3)CC2)c(Cl)cc1Nc1nc(Nc2cccc3c2N(S(C)(=O)=O)CC3)c2cc[nH]c2n1", 66.5),
    ("COc1cc(C2CCN(CCO)CC2)c(C)cc1Nc1nc(Nc2cccc3c2N(S(C)(=O)=O)CC3)c2cc[nH]c2n1", 464),
    ("COc1cc(N2CCC(N3CCN(C)CC3)CC2)ccc1Nc1ncc(Cl)c(Nc2cccc3c2N(S(=O)(=O)C2CC2)CC3)n1", 81.6),
    ("CN1CCN(C2CCN(c3ccc(Nc4ncc(Cl)c(Nc5cccc6c5N(S(C)(=O)=O)CC6)n4)c4c3CCO4)CC2)CC1", 79.3),
    ("COc1cc(N2CCC(N3CCN(C)CC3)CC2)ccc1Nc1ncc(Cl)c(Nc2cccc3c2N(S(=O)(=O)N(C)C)CC3)n1", 294),
]

I. COc1cc(N2CCN(C)[C@H](C)C2)c(C)cc1Nc1nc(Nc2cccc3c2N(S(C)(=O)=O)CC3)c2cc[nH]c2n1
II. COc1cc(N2CCC(N3CCN(C)CC3)CC2)c(C)cc1Nc1ncc(Br)c(Nc2cccc3c2N(S(C)(=O)=O)CC3)n1
Asked: Task for the reader: decide whether I or II has the larger GI50. In your reply, give the label of the chosen option.
Given back: I

----------
# subjectOfTest: EGFR(L858R_T790M_C797S) (aa695-end, Invitrogen) (Homo sapiens, UniProt P00533, C797S/L858R/T790M)
# Sequence (P00533 695-1210 T790M/C797S/L858R): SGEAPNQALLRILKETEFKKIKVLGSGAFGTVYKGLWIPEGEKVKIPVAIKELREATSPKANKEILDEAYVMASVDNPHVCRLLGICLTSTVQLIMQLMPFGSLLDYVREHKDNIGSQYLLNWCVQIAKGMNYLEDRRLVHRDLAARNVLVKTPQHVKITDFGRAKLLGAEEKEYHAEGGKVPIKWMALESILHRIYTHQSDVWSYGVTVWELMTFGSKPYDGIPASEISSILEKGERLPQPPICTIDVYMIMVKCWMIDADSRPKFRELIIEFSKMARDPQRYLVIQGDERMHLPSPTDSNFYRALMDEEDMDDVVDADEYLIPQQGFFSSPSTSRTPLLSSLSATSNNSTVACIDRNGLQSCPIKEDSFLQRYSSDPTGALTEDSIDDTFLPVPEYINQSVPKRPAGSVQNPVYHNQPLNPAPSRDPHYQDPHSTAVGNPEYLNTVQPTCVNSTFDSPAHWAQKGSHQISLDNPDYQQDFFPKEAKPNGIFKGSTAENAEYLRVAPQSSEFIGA
# assayExplanation: Biochemical EGFR inhibition assay (TR-FRET), L858R/T790M/C797S mutant
# setupConditions: ATP at Km, 15 min pre-incubation, 60 min reaction; read-out: LR_TM_CS (Km ATP) IC50
property: IC50 (nM)

# molecule, IC50 / nM
data = [
    ("CC1Cc2c(N3CCC(N4CCN(C)CC4)CC3)ccc(Nc3ncc(Br)c(Nc4cccc5c4N(S(C)(=O)=O)CC5)n3)c2O1 (stereo not drawn)", 1.5),
]

P. COc1cc(-c2cnn(CCN3CCN(C)CC3)c2)ccc1Nc1nc(Nc2cccc3c2N(S(C)(=O)=O)CC3)c2cc[nH]c2n1
Q. COc1cc(N2CCC(N3CCN(C)CC3)CC2)c(C)cc1Nc1ncc(Cl)c(Nc2cccc3c2N(S(C)(=O)=O)CC32CC2)n1
R. COc1cc(C2CCN(CCO)CC2)c(C)cc1Nc1nc(Nc2cccc3c2N(S(C)(=O)=O)CC3)c2cc[nH]c2n1
Asked: Parameters: sort_field (IC50), sort_dir (desc). I'd appreciate it if you listed the labels in the requested order.
Given back: P, R, Q
(P: 20.7 nM, R: 1.9 nM, Q: 0.3 nM)

a. COc1cc(N2CCC(N3CCN(C)CC3)CC2)ccc1Nc1ncc(Cl)c(Nc2cccc3c2N(S(=O)(=O)CF)CC3)n1
b. CN1CCN(c2c(F)cc(Nc3ncc(Br)c(Nc4cccc5c4N(S(C)(=O)=O)CC5)n3)c3c2CCO3)CC1
Asked: Task for the reader: decide whether a or b has the larger IC50. In your reply, give the label of the chosen option.
Given back: b
